- EXPERIMENTAL_DETAILS: Metabolic stability in mouse liver microsomes assessed as intrinsic clearance
- Format: ADME, Microsome

>  <QUERY_SMILES>
Cc1nc(Nc2ncc(C(=O)Nc3ncccc3C)s2)cc(N2CCN(CCO)CC2)n1

>  <READOUT_UNIT>
µL/min/mg

>  <CLint>
38

$$$$

====

- TGT: hERG (KCNH2) (Homo sapiens, UniProt Q12809)
- Sequence (Q12809 whole entry): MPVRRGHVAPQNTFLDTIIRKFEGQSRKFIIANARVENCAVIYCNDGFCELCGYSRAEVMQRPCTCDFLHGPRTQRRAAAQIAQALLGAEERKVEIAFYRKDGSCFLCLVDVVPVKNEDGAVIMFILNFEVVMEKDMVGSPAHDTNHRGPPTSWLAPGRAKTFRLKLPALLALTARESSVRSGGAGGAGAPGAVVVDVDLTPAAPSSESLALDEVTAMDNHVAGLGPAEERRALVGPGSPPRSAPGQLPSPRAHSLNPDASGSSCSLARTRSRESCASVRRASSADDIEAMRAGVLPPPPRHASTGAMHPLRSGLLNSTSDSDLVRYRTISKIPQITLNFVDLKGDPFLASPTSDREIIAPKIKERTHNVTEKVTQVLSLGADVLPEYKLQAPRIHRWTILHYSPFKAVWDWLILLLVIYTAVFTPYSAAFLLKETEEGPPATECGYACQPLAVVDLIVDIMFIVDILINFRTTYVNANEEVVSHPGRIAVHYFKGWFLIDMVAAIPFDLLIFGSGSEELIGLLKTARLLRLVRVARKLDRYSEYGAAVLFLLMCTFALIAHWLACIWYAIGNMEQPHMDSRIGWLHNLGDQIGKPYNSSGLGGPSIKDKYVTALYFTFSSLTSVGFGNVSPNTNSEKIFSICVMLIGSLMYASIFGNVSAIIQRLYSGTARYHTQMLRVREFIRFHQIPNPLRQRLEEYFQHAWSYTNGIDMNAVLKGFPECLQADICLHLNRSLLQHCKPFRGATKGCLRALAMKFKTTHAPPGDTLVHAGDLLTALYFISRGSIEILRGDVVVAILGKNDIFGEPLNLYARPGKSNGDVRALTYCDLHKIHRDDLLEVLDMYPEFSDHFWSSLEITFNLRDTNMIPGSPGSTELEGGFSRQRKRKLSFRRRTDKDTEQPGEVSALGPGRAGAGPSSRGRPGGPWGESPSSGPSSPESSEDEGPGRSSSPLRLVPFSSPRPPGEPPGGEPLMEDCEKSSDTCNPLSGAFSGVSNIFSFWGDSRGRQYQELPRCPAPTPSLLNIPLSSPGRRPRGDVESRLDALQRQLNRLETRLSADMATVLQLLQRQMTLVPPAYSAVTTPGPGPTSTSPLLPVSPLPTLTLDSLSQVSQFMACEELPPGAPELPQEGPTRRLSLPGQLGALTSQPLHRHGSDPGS
- EXPERIMENTAL_DETAILS: Inhibition of human ERG expressed in HEK cells at 10 uM by automated electrophysiology assay
- Assay type: cell-based
- TEST_PARAMETERS: HEK cells that express human ERG
ENDPOINT_LABEL: inhibition at 10 µM (%)

>  <QUERY_SMILES>
Cc1nc(Nc2ncc(C(=O)Nc3c(C)cccc3Cl)s2)cc(N2CCN(CCO)CC2)n1.O

>  <RECORDED_RESULT>
36

$$$$

Source: ChEMBL document CHEMBL4806967
